pIC50: −log10 of the molar value.
Consider molecules characterized by their pIC50 with Tyrosine-protein kinase Yes (Homo sapiens).
Sequence (P07947 whole entry): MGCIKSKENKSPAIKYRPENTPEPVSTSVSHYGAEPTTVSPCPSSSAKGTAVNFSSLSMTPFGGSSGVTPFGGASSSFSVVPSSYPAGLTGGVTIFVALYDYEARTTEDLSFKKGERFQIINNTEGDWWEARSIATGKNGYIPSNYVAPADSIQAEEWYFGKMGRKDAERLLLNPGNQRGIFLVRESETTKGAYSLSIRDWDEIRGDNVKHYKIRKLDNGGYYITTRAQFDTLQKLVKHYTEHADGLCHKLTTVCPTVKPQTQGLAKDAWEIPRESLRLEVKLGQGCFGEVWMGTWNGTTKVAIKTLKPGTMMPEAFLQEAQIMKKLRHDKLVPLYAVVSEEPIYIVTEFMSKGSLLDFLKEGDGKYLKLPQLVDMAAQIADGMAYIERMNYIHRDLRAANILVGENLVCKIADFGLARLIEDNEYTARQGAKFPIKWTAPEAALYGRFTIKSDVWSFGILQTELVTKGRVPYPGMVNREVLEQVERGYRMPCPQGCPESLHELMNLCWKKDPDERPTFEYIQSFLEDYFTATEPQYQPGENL

Query block: With Tyrosine-protein kinase Yes (Homo sapiens) as the test system, provide measured pIC50 for this molecule: CC(C)(NC(=O)CCc1ccc(O)c(P(=O)(O)O)c1)c1ccc(OCC2CCCCC2)c(C(N)=O)c1
Result block: < 3.30

Query block: With Tyrosine-protein kinase Yes (Homo sapiens) as the test system, provide measured pIC50 for this molecule: CC(=O)NC(Cc1ccc(OCC(=O)O)cc1)C(=O)N[C@@H](C)c1ccc(OCC2CCCCC2)c(C(N)=O)c1 (stereo partly drawn)
Result block: < 3.30

Query block: With Tyrosine-protein kinase Yes (Homo sapiens) as the test system, provide measured pIC50 for this molecule: CC(C)(NC(=O)CCc1ccc(OS(=O)(=O)C(F)(F)F)c(P(=O)(O)O)c1)c1ccc(OCC2CCCCC2)c(C(N)=O)c1
Result block: < 3.30
